- assay notes: S16 Schwann cell PMP22 intronic element firefly luciferase assay (AID 624032); note: nearly all actives have a fitted effect of over 30% in size
- test parameters: S16 rat Schwann cells, PMP22 element FLuc, 24 h; series mostly up to 57.5 µM
Inconclusive results are not listed. Active and inactive are the calls of the source. Calls come from the whole dose curve; as a rule, active = well fitted inhibition curve with a large enough effect; inconclusive = small, poorly fitted or top-dose-only effect; inactive = no such curve, though single readings can be large or run the other way.
Permitted responses: active, inactive

Recorded test outcome, item `Clc1ccc(Nc2nnc(Cc3ccncc3)c3ccccc23)cc1`
active

Recorded test outcome, item COc1ccc2nc(S(=O)Cc3ncc(C)c(OC)c3C)[nH]c2c1 (stereo unspecified)
inactive

Recorded test outcome, item `NS(=O)(=O)c1cc2c(cc1Cl)NC=NS2(=O)=O`
inactive

Recorded test outcome, item `N=c1nc(N2CCCCC2)cc(N)n1O`
inactive

Recorded test outcome, item `N[C@@H]1CONC1=O`
inactive

Recorded test outcome, item CC(c1cc2ccccc2s1)N(O)C(N)=O (stereo unspecified)
inactive

Recorded test outcome, item `O=NN(CCCl)C(=O)NCCCl`
inactive

Recorded test outcome, item Cc1ccccc1C(OCCN(C)C)c1ccccc1 (stereo unspecified)
inactive

Recorded test outcome, item `Nc1nc2c(ncn2COCCO)c(=O)[nH]1`
inactive

Recorded test outcome, item `CCCCNc1cc(C(=O)O)cc(S(N)(=O)=O)c1Oc1ccccc1`
inactive

Recorded test outcome, item `CC(C)C[C@H](NC(=O)[C@@H](O)[C@H](N)Cc1ccccc1)C(=O)O`
inactive

====

- assay notes: NS1 protein of Zika virus - qHTS assay to identify small molecule inhibitors in human HEK 293 cells (AID 1347053); note: nearly all actives have a fitted effect of over 55% in size
- test parameters: HEK293 ZIKV MR766 infection, NS1 TR-FRET, 24 h; series mostly up to 46.1 µM
Records with an inconclusive call do not appear. Calls of active or inactive are those of the source. Calls follow the shape of the dose curve; as a rule, active = well fitted inhibition curve with a large enough effect; inconclusive = small, poorly fitted or top-dose-only effect; inactive = no such curve, though single readings can be large or run the other way.
Permitted responses: T for active, F for inactive

Recorded test outcome, item `C[C@@H]1CN(Cc2ccc(F)cc2)[C@@H](C)CN1C(=O)c1cc2c(C(=O)C(=O)N(C)C)cn(C)c2cc1Cl`
F

Recorded test outcome, item `Oc1cccc(-c2nc(N3CCOCC3)c3oc4ncccc4c3n2)c1`
T

Recorded test outcome, item `CC(C)C[C@H](NC(=O)[C@@H](O)[C@H](N)Cc1ccccc1)C(=O)O`
F

Recorded test outcome, item `CCCS(=O)(=O)Nc1ccc(F)c(C(=O)c2c[nH]c3ncc(Cl)cc23)c1F`
F

Recorded test outcome, item `Fc1ccc(Cl)cc1-c1nc(Nc2ccncc2)c2nccnc2n1`
F

Recorded test outcome, item `OCCn1cc(-c2cnc3nnn(Cc4ccc5ncccc5c4)c3n2)cn1`
F

Recorded test outcome, item `Cc1cc(SCc2sc(-c3ccc(C(F)(F)F)cc3)nc2C)ccc1OCC(=O)O`
F

Recorded test outcome, item `Cn1c(=O)c(F)c(Nc2ccc(I)cc2F)c2c(=O)n(C[C@@H](O)CO)cnc21`
F

Recorded test outcome, item `CCCCNc1cc(C(=O)O)cc(S(N)(=O)=O)c1Oc1ccccc1`
F

Recorded test outcome, item O=C1CCC(N2C(=O)c3ccccc3C2=O)C(=O)N1 (stereo not given)
F

Recorded test outcome, item `Cc1c(CCOc2ccc(C(=O)O)cc2)c2cc(Cl)ccc2n1C(c1ccccc1)c1ccccc1`
F

Recorded test outcome, item CCc1ccc(CCOc2ccc(CC3SC(=O)NC3=O)cc2)nc1 (stereo not given)
F

Recorded test outcome, item `C[C@]12CCC(=O)C=C1CC[C@@H]1[C@@H]2[C@@H](O)C[C@@]2(C)[C@H]1CC[C@]2(O)C(=O)CO`
F

Recorded test outcome, item `C1COC(NC(C2CC2)C2CC2)=N1`
F

Recorded test outcome, item `CC1(C)SCCN(S(=O)(=O)c2ccc(OCC#CCO)cc2)[C@@H]1C(=O)NO`
F

Recorded test outcome, item `CCOc1cc(N2CCC(O)CC2)ccc1Nc1ncc2c(n1)N(C)c1ccccc1C(=O)N2C`
F

Recorded test outcome, item `Cn1cc(-c2ccc3nnc(C(F)(F)c4ccc5ncccc5c4)n3n2)cn1`
F

Recorded test outcome, item `CCOc1ccc(Cc2cc([C@@H]3O[C@H](CO)[C@@H](O)[C@H](O)[C@@H]3O)ccc2Cl)cc1`
F

Recorded test outcome, item O=C1CCCC2=C1C(c1[nH]ncc1Cl)N=C(Nc1nc3ccccc3o1)N2 (stereo not given)
F

Recorded test outcome, item NC(=O)C1CCCc2c1[nH]c1ccc(Cl)cc21 (stereo not given)
F

Recorded test outcome, item `CCn1c(-c2nonc2N)nc2c(C#CC(C)(C)O)ncc(OC[C@H]3CCCNC3)c21`
F

Recorded test outcome, item Oc1ccc(C2CNCCc3c2cc(O)c(O)c3Cl)cc1 (stereo not given)
F

Recorded test outcome, item `O=C1[C@H](Cc2ccc(O)cc2)N2C(=O)CCN(C(=O)NCc3ccccc3)[C@H]2CN1Cc1cccc2ccccc12`
T

Recorded test outcome, item `COc1cc2c(cc1OC)CN(CCc1ccc(NC(=O)c3cccc4c(=O)c5cccc(OC)c5[nH]c34)cc1)CC2`
F

Recorded test outcome, item `CC(C=CC1=C(C)CCCC1(C)C)=CC=CC(C)=CC(=O)O`
F

Recorded test outcome, item `Cn1cnc([N+](=O)[O-])c1Sc1ncnc2nc[nH]c12`
F

Recorded test outcome, item `NS(=O)(=O)c1cc2c(cc1Cl)NC=NS2(=O)=O`
F

Recorded test outcome, item `NC(=O)c1ccc(-c2nc(-c3ccc4c(c3)OCCO4)c(-c3ccccn3)[nH]2)cc1`
F

Recorded test outcome, item `CCC(C)(C)C(=O)O[C@H]1C[C@@H](C)C=C2C=C[C@H](C)[C@H](CC[C@@H]3C[C@@H](O)CC(=O)O3)[C@H]21`
F

Recorded test outcome, item `CCOc1ccn(-c2ccc(F)cc2)c(=O)c1C(=O)Nc1ccc(Oc2ccnc(N)c2Cl)c(F)c1`
F

Recorded test outcome, item `Clc1cccc(Cl)c1NC1=NCCN1`
F

Recorded test outcome, item `CCCS(=O)(=O)Nc1ccc(F)c(C(=O)c2c[nH]c3ncc(-c4ccc(Cl)cc4)cc23)c1F`
F

Recorded test outcome, item `CS(=O)(=O)c1ccc(C(=O)Nc2ccc(Cl)c(-c3ccccn3)c2)c(Cl)c1`
F

Recorded test outcome, item `O=c1[nH]c(-c2ccc(C(F)(F)F)cc2)nc2c1CSCC2`
F

Recorded test outcome, item `CCc1cc(Nc2nccc(-c3c(-c4ccc(OC)c(C(=O)Nc5c(F)cccc5F)c4)nc4ccccn34)n2)c(OC)cc1N1CCC(N2CCN(S(C)(=O)=O)CC2)CC1`
T

Recorded test outcome, item `CCCc1nn(C)c2c(=O)[nH]c(-c3cc(S(=O)(=O)N4CCN(C)CC4)ccc3OCC)nc12`
F

Recorded test outcome, item `Nc1nccc(-c2ccc3noc(-c4ccc(Cl)cc4)c3c2)n1`
F

Recorded test outcome, item Cc1c(C)c2c(c(C)c1O)CCC(C)(COc1ccc(CC3SC(=O)NC3=O)cc1)O2 (stereo not given)
F

Recorded test outcome, item `CCOc1cc(C(=O)Nc2ccc(Cl)c(-c3nc4ccccc4[nH]3)c2)cc(OCC)c1OCC`
F

Recorded test outcome, item `N[C@@H]1CONC1=O`
F

====

- Test system: MCC-26
- assay notes: qHTS assay to identify novel small-molecules to repurpose for Merkel cell carcinoma treatment (AID 1296009); note: nearly all actives have a fitted effect of over 60% in size
- test parameters: MCC and control cell lines, CellTiter-Glo viability, 72 h; series mostly up to 46 µM
Inconclusive results are not listed. Activity calls are given as the source filed them. Calls come from the whole dose curve; as a rule, active = well fitted inhibition curve with a large enough effect; inconclusive = small, poorly fitted or top-dose-only effect; inactive = flat fitted curve, though single readings scatter.
readout kind: outcome

Answered examples (4):
CS(=O)(=O)c1ccc(C(=O)Nc2ccc(Cl)c(-c3ccccn3)c2)c(Cl)c1 | inactive
CNC(=O)c1ccccc1Sc1ccc2c(/C=C/c3ccccn3)n[nH]c2c1 | inactive
CC1(C)SCCN(S(=O)(=O)c2ccc(OCC#CCO)cc2)[C@@H]1C(=O)NO | inactive
O=C(c1cc(Cc2n[nH]c(=O)c3ccccc23)ccc1F)N1CCN(C(=O)C2CC2)CC1 | inactive

Field request: outcome | item: `COc1ccccc1[C@H](c1cccc2ccccc12)[C@@](C)(C#N)C(=O)N1CCC(c2cccc(C(F)(F)F)c2)CC1`
inactive

Field request: outcome | item: `NNCCc1ccccc1`
inactive

Field request: outcome | item: `CNC[C@H](O)c1cccc(O)c1`
inactive

====

- assay notes: Identifying Small Molecule Inhibitors of Pancreatic Cancer Stem Cells (SN12C, Adherent) (AID 1259358);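 note: cell survival measured after 48 h of compound exposure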
- test parameters: viability/growth inhibition; series mostly up to 46.1 µM
Records with an inconclusive call do not appear. Active and inactive are the calls of the source. The call rests on the fitted dose curve; in most records, active means well fitted cell-killing curve with a large enough effect; inconclusive means small, poorly fitted or top-dose-only effect; inactive means flat fitted curve, though single readings scatter.
Permitted responses: active, inactive

Recorded test outcome, item `CCn1c(-c2nonc2N)nc2cnc(Oc3cccc(NC(=O)c4ccc(OCCN5CCOCC5)cc4)c3)cc21`
inactive

Recorded test outcome, item `NC(=O)c1ccc(-c2nc(-c3ccc4c(c3)OCCO4)c(-c3ccccn3)[nH]2)cc1`
inactive

Recorded test outcome, item `COc1ccc(-c2ccc3c(N4CCOCC4)nc(N4C[C@@H](C)O[C@@H](C)C4)nc3n2)cc1CO`
active

Recorded test outcome, item `O=S(=O)(N=Cc1c(O)ccc2ccccc12)c1cccs1`
inactive

Recorded test outcome, item `O=C(OCC#CCSc1nnc(-c2ccc3ccccc3c2)o1)c1cc2ccccc2s1`
inactive

Recorded test outcome, item `CC(C)C[C@H](NC(=O)[C@@H](O)[C@H](N)Cc1ccccc1)C(=O)O`
inactive

Recorded test outcome, item C[C@@H]1C[C@H]2[C@@H]3CCC4=CC(=O)C=C[C@]4(C)C3(F)[C@@H](O)C[C@]2(C)[C@@]1(O)C(=O)CO (some centres undefined)
inactive

Recorded test outcome, item `O=C(NOC[C@H](O)CO)c1ccc(F)c(F)c1Nc1ccc(I)cc1F`
active

Recorded test outcome, item `Cn1cc(-c2ccc3nnc(C(F)(F)c4ccc5ncccc5c4)n3n2)cn1`
inactive

Recorded test outcome, item `O=C(O)c1ccc(-c2c[nH]c3ccc(-c4ccccc4)cc23)cc1C1CCCC1`
inactive

Recorded test outcome, item `CCOc1cc(C=C2C(=O)N(c3ccccc3)N=C2C)cc(Cl)c1OCC(=O)OC`
inactive

Recorded test outcome, item `S=C(NCc1ccc2c(c1)OCO2)N1CCN(c2ncnc3c2oc2ccccc23)CC1`
active

Recorded test outcome, item `NC(=O)c1ccc(-c2nc(-c3ccc4c(c3)OCO4)c(-c3ccccn3)[nH]2)cc1`
inactive

Recorded test outcome, item `COc1nc(-c2ccc3c(c2)OCO3)n(-c2ccc(NC(=O)CSc3ccccc3)cc2)n1`
inactive

Recorded test outcome, item `Cn1c(=O)c(F)c(Nc2ccc(I)cc2F)c2c(=O)n(C[C@@H](O)CO)cnc21`
active

Recorded test outcome, item `O=c1ncn2nc(Sc3ccc(F)cc3F)ccc2c1-c1c(Cl)cccc1Cl`
inactive

Recorded test outcome, item `CCOc1cc(C(=O)Nc2ccc(Cl)c(-c3nc4ccccc4[nH]3)c2)cc(OCC)c1OCC`
inactive

Recorded test outcome, item `Nc1cccc(S(=O)(=O)N2CCCN(S(=O)(=O)c3ccc4c(c3)OCCO4)CC2)c1`
inactive

Recorded test outcome, item `COCCNCCCn1c(C(=O)CF)c(-c2ccc(C)cc2)c2c(N)ncnc21`
inactive
